test: Tmax in Sprague-Dawley rat at 10 mg/kg, po measured upto 24 hrs; format: ADME, organism-based; details: in vivo

{"compound": "Cc1nc2c(n1[C@@H]1C[C@H]3CC[C@@H](C1)N3CC[C@H](NC(=O)C1CCC(F)(F)CC1)c1ccsc1)CCN(C(=O)C(C)C)C2", "Tmax": "2 h"}
{"compound": "CC(=O)N1CCc2c(nc(C)n2[C@@H]2C[C@H]3CC[C@@H](C2)N3CC[C@H](NC(=O)C2CCC(F)(F)CC2)c2ccsc2)C1", "Tmax": "2.67 h"}
{"compound": "Cc1nnc(C(C)C)n1[C@@H]1C[C@H]2CC[C@@H](C1)N2CC[C@H](NC(=O)C1CCC(F)(F)CC1)c1ccccc1 [MARAVIROC]", "Tmax": "2 h"}

----------
test: Half life in Sprague-Dawley rat at 2 mg/kg, iv measured upto 24 hrs; assay type: ADME, organism-based; settings: Sprague-Dawley, in vivo
half-life values for the compounds below.
quantityName: half-life

{"smiles": "CC(=O)N1CCc2c(nc(C)n2[C@@H]2C[C@H]3CC[C@@H](C2)N3CC[C@H](NC(=O)C2CCC(F)(F)CC2)c2ccsc2)C1", "quantityName": "half-life", "testValue": "3.34 h"}
{"smiles": "Cc1nnc(C(C)C)n1[C@@H]1C[C@H]2CC[C@@H](C1)N2CC[C@H](NC(=O)C1CCC(F)(F)CC1)c1ccccc1", "quantityName": "half-life", "testValue": "0.9 h"}

----------
Quick reference for EC50 among some compounds
tested on: Human immunodeficiency virus 1; experiment: Antiviral activity against HIV-1 Ba-L infected in human PM1 cells measured after 48 hrs incubation by ELISA based p24 antigen assay; assay type: functional, organism-based; details: Human immunodeficiency virus 1, Ba-L, PM1, 48 h

{"smiles": "Cc1nnc(C(C)C)n1[C@H]1C[C@H]2CC[C@@H](C1)N2CC[C@H](NC(=O)C1CCC(F)(F)CC1)c1ccccc1", "EC50 / nM": 0.34}
{"smiles": "CC(=O)N1CCc2c(nc(C)n2[C@@H]2C[C@H]3CC[C@@H](C2)N3CC[C@H](NC(=O)C2CCC(F)(F)CC2)c2ccsc2)C1", "EC50 / nM": 0.29}
{"smiles": "Cc1nc2c(n1[C@@H]1C[C@H]3CC[C@@H](C1)N3CC[C@H](NC(=O)C1CCC(F)(F)CC1)c1ccsc1)CCN(C(=O)C(C)C)C2", "EC50 / nM": 0.5}

----------
tested on: Human immunodeficiency virus 1; assay: Antiviral activity against HIV-1 SF162 infected in human TZM-bl cells measured after 48 hrs incubation by luciferase based analysis; type: functional, organism-based; conditions: Human immunodeficiency virus 1, SF162, TZM-bl
quantityName: log10 EC50 (log10 of the value in nM)

{"smiles": "Cc1nnc(C(C)C)n1[C@@H]1C[C@H]2CC[C@@H](C1)N2CC[C@H](NC(=O)C1CCCCC1)c1ccc(F)s1", "log10 EC50": 3.42}
{"smiles": "Cc1nc2c(n1[C@@H]1C[C@H]3CC[C@@H](C1)N3CC[C@H](NC(=O)C1CCC(F)(F)CC1)c1ccsc1)CCN(C(=O)C(C)C)C2", "log10 EC50": 1.20}
{"smiles": "CC(=O)N1CCc2c(nc(C)n2[C@@H]2C[C@H]3CC[C@@H](C2)N3CC[C@H](NC(=O)C2CCC(F)(F)CC2)c2ccsc2)C1", "log10 EC50": 0.88}
{"smiles": "Cc1nnc(C(C)C)n1[C@H]1C[C@H]2CC[C@@H](C1)N2CC[C@H](NC(=O)C1CCC(F)(F)CC1)c1ccccc1", "log10 EC50": 1.28}
{"smiles": "CC(=O)N[C@@H](CCN1[C@@H]2CC[C@H]1C[C@H](n1c(C)nnc1C(C)C)C2)c1cccs1", "log10 EC50": 3.04}

----------
assay: in vitro; details: human, PBMC
Description: Therapeutic index, ratio of CC50 for human PBMC to EC50 for antiviral activity against HIV-1 KIZ006 clinical isolate
Reported values of selectivity ratio for individual entries
quantityName: selectivity ratio

{"smiles": "CC(=O)N1CCc2c(nc(C)n2[C@@H]2C[C@H]3CC[C@@H](C2)N3CC[C@H](NC(=O)C2CCC(F)(F)CC2)c2ccsc2)C1", "testValue": 5390}
{"smiles": "Cc1nc2c(n1[C@@H]1C[C@H]3CC[C@@H](C1)N3CC[C@H](NC(=O)C1CCC(F)(F)CC1)c1ccsc1)CCN(C(=O)C(C)C)C2", "testValue": 6480}

----------
experiment: AUC (0 to last) in Sprague-Dawley rat at 10 mg/kg, po measured upto 24 hrs; type: ADME, organism-based; parameters: dose 10 mg/kg, time < 24 hrs, route po; details: in vivo

{"smiles": "Cc1nc2c(n1[C@@H]1C[C@H]3CC[C@@H](C1)N3CC[C@H](NC(=O)C1CCC(F)(F)CC1)c1ccsc1)CCN(C(=O)C(C)C)C2", "AUC(0-t) at 24 h [ng·h/mL]": 283}
{"smiles": "CC(=O)N1CCc2c(nc(C)n2[C@@H]2C[C@H]3CC[C@@H](C2)N3CC[C@H](NC(=O)C2CCC(F)(F)CC2)c2ccsc2)C1", "AUC(0-t) at 24 h [ng·h/mL]": 270}

----------
experiment: Cytotoxicity against human PM1 cells incubated for 48 hrs by MTT assay; format: toxicity, cell-based
Parameter: CC50 at 48 h. Scope: all listed entries.

{"compound": "CC(=O)N1CCc2c(nc(C)n2[C@@H]2C[C@H]3CC[C@@H](C2)N3CC[C@H](NC(=O)C2CCC(F)(F)CC2)c2ccsc2)C1", "CC50 at 48 h": "> 200 µM"}
{"compound": "Cc1nnc(C(C)C)n1[C@@H]1C[C@H]2CC[C@@H](C1)N2CC[C@H](NC(=O)C1CCC(F)(F)CC1)c1ccccc1 [MARAVIROC]", "CC50 at 48 h": "> 200 µM"}
{"compound": "Cc1nc2c(n1[C@@H]1C[C@H]3CC[C@@H](C1)N3CC[C@H](NC(=O)C1CCC(F)(F)CC1)c1ccsc1)CCN(C(=O)C(C)C)C2", "CC50 at 48 h": "> 200 µM"}

----------
test: MRT in Sprague-Dawley rat at 2 mg/kg, iv measured upto 24 hrs; type: ADME, organism-based; conditions: Sprague-Dawley, in vivo, read-out: MRT
quantityName: MRT (h)

{"smiles": "CC(=O)N1CCc2c(nc(C)n2[C@@H]2C[C@H]3CC[C@@H](C2)N3CC[C@H](NC(=O)C2CCC(F)(F)CC2)c2ccsc2)C1", "unitOfMeasurement": "h", "testValue": 9.16}

----------
system: Human immunodeficiency virus 1; test: Antiviral activity against HIV-1 Ba-L infected in human HOS-CD4-CCR5 cells measured after 48 hrs incubation by ELISA based p24 antigen assay; type: functional, organism-based; details: Human immunodeficiency virus 1, Ba-L
pEC50: −log10 of the molar value.

{"smiles": "Cc1nnc(C(C)C)n1[C@H]1C[C@H]2CC[C@@H](C1)N2CC[C@H](NC(=O)C1CCC(F)(F)CC1)c1ccccc1", "pEC50": 8.98}
{"smiles": "Cc1nc2c(n1[C@@H]1C[C@H]3CC[C@@H](C1)N3CC[C@H](NC(=O)C1CCC(F)(F)CC1)c1ccsc1)CCN(C(=O)C(C)C)C2", "pEC50": 8.81}
{"smiles": "CC(=O)N1CCc2c(nc(C)n2[C@@H]2C[C@H]3CC[C@@H](C2)N3CC[C@H](NC(=O)C2CCC(F)(F)CC2)c2ccsc2)C1", "pEC50": 9.18}

----------
test: AUC (0 to infinitive) in Sprague-Dawley rat at 2 mg/kg, iv measured upto 24 hrs; format: ADME, organism-based; set-up: dose 2 mg/kg, time < 24 hrs, route iv; details: Sprague-Dawley, in vivo
quantityName: AUC(0-inf) (ng·h/mL)

{"smiles": "Cc1nc2c(n1[C@@H]1C[C@H]3CC[C@@H](C1)N3CC[C@H](NC(=O)C1CCC(F)(F)CC1)c1ccsc1)CCN(C(=O)C(C)C)C2", "quantityName": "AUC(0-inf)", "testValue": 283}

----------
experiment: Oral bioavailability in Sprague-Dawley rat at 10 mg/kg measured upto 24 hrs; type: ADME, organism-based; details: Sprague-Dawley, in vivo

{"smiles": "Cc1nc2c(n1[C@@H]1C[C@H]3CC[C@@H](C1)N3CC[C@H](NC(=O)C1CCC(F)(F)CC1)c1ccsc1)CCN(C(=O)C(C)C)C2", "bioavailability": "15.7%"}

----------
experiment: Clearance in Sprague-Dawley rat at 1 mg/kg, iv measured upto 24 hrs; format: ADME, organism-based; settings: in vivo

{"smiles": "Cc1nnc(C(C)C)n1[C@@H]1C[C@H]2CC[C@@H](C1)N2CC[C@H](NC(=O)C1CCC(F)(F)CC1)c1ccccc1", "clearance (mL/min/kg)": 74}

----------
molecular target: Cytochrome P450 2C9 (Homo sapiens, UniProt P11712)
Sequence (P11712 whole entry): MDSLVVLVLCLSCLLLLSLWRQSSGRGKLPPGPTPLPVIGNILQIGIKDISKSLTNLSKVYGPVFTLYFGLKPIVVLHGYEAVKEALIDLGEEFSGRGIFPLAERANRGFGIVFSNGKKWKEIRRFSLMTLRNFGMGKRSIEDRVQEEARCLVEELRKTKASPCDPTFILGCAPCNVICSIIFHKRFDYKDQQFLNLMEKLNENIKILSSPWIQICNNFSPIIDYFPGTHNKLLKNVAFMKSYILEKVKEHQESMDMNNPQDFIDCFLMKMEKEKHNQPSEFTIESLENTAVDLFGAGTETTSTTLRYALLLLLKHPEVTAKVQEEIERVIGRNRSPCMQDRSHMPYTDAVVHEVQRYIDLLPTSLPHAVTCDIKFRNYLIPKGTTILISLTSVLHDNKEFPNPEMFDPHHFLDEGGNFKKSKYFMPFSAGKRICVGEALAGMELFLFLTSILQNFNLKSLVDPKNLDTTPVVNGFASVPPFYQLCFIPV
pIC50: −log10 of the molar value.
Listing: pIC50 of selected molecules
quantityName: pIC50

{"smiles": "CC(=O)N1CCc2c(nc(C)n2[C@@H]2C[C@H]3CC[C@@H](C2)N3CC[C@H](NC(=O)C2CCC(F)(F)CC2)c2ccsc2)C1", "testValue": "< 4.60"}
{"smiles": "Cc1nc2c(n1[C@@H]1C[C@H]3CC[C@@H](C1)N3CC[C@H](NC(=O)C1CCC(F)(F)CC1)c1ccsc1)CCN(C(=O)C(C)C)C2", "testValue": "< 4.60"}
{"smiles": "Cc1nnc(C(C)C)n1[C@@H]1C[C@H]2CC[C@@H](C1)N2CC[C@H](NC(=O)C1CCC(F)(F)CC1)c1ccccc1", "testValue": 4.84}

All figures here come from ChEMBL document CHEMBL5150068.
